Values were extracted from patent US20090312288A1.

- target: Aurora B/INCENP (Homo sapiens, UniProt Q96GD4)
- Sequence (Q96GD4 whole entry): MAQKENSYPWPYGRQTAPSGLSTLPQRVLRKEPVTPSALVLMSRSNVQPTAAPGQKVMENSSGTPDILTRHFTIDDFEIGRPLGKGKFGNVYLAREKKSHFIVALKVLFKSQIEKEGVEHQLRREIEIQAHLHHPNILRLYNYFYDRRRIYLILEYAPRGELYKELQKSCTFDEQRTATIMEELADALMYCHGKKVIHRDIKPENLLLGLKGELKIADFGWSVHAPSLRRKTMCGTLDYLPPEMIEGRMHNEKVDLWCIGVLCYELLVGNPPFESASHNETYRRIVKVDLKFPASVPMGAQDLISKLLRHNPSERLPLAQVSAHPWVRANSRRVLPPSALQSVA
- Sequence (Q9NQS7 whole entry partner): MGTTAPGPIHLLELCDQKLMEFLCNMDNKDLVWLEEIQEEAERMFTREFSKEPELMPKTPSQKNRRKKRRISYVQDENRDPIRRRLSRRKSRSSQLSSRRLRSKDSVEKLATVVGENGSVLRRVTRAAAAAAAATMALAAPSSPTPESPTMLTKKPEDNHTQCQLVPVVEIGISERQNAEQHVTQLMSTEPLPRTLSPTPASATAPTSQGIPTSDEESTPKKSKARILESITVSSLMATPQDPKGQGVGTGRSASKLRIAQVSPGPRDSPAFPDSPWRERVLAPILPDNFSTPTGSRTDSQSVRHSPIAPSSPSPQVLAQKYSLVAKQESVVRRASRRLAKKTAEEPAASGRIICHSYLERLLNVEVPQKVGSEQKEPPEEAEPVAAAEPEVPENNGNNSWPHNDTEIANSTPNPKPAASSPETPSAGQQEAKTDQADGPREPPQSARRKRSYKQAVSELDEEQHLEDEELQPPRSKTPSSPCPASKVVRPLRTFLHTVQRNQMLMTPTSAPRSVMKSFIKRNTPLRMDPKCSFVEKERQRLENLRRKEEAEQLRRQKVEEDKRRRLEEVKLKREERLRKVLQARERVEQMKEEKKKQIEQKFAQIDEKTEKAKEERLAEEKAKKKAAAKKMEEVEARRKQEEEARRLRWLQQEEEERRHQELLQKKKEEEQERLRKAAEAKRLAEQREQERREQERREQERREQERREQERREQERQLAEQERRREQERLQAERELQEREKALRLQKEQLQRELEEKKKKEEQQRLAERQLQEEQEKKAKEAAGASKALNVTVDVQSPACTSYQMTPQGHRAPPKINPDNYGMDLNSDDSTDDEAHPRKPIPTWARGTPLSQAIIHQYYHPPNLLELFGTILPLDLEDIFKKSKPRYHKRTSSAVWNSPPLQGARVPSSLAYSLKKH
- assayMethodText: Determination of inhibition of AIK: Aurora B/INCENP direct fluorescence polarization (IMAP) assay
- conditionSummary: 10 uM ATP, 0.8 nM Aurora B/INCENP; values given as bins; read-out: IC50 of Exemplified Compounds Against AIK B
pIC50: −log10 of the molar value.
assayMetric: pIC50

Solved cases below.
* CCS(=O)(=O)c1cccc(-c2ccc(OCC3CCNCC3)c3[nH]c4ncc(C)cc4c23)c1 | 8.26 to 8.40
* Cc1cnc2[nH]c3c(C)c(C(=O)NC4CCN(C)CC4)cc(-c4cccc(S(=O)(=O)C5CC5)c4)c3c2c1 | 7.89 to 8.07
* CCS(=O)(=O)c1cccc(-c2ccc(OCC3CCN(C)CC3)c3[nH]c4ncc(C(F)(F)F)cc4c23)c1 | 7.89 to 8.07
* CCS(=O)(=O)c1cccc(-c2ccc(OCCCN(C)C)c3[nH]c4ncc(C(F)(F)F)cc4c23)c1 | < 7.89
* CCS(=O)(=O)c1cccc(-c2cnc(OC[C@@H](C)O)c3[nH]c4ncc(C)cc4c23)c1 | 8.26 to 8.40

Now, please, on to the next molecule.
# lookup: pIC50 of `CCS(=O)(=O)c1cccc(-c2cc(C(=O)NCCN3CCCC3)c(C)c3[nH]c4ncc(C)cc4c23)c1`
7.89 to 8.07

* * *

This section presents compounds with their documented IC50 values.
- target: Aurora B/INCENP (Homo sapiens, UniProt Q96GD4)
- assayMethodText: Determination of inhibition of AIK: Aurora B/INCENP direct fluorescence polarization (IMAP) assay
- conditionSummary: 10 uM ATP, 0.8 nM Aurora B/INCENP; values given as bins; read-out: IC50 of Exemplified Compounds Against AIK B

* CN1CCC(COc2ccc(-c3cccc(S(=O)(=O)C4CC4)c3)c3c2[nH]c2ncc(Cl)cc23)CC1 [Compound 286] | 8.6 to 13 nM
* CCNS(=O)(=O)c1cccc(-c2ccc(OC)c3[nH]c4ncc(C)cc4c23)c1 [Compound 170] | < 4 nM
* Cc1cnc2[nH]c3c(OCCCN4CCC(OP(=O)(O)O)CC4)ccc(-c4cccc(S(=O)(=O)C5CC5)c4)c3c2c1 [Compound 444] | < 4 nM
* CS(=O)(=O)c1cccc(-c2cccc3[nH]c4ncccc4c23)c1 [Compound 8] | > 13 nM
* CCS(=O)(=O)c1cccc(-c2cnc(Oc3ccccc3)c3[nH]c4ncc(C)cc4c23)c1 [Compound 59] | 5.6 to 8.5 nM

For Aurora B/INCENP (Homo sapiens, UniProt Q96GD4), provide IC50 of CCS(=O)(=O)c1cccc(-c2ccc(OCCCN(CCOP(=O)(O)O)CC(F)(F)F)c3[nH]c4ncc(C)cc4c23)c1 [Compound 343] please.
< 4 nM

For Aurora B/INCENP (Homo sapiens, UniProt Q96GD4), provide IC50 of CCNCc1cc(-c2cccc(S(=O)(=O)CC)c2)c2c(c1)[nH]c1ncc(C)cc12 [Compound 139] please.
> 13 nM

For Aurora B/INCENP (Homo sapiens, UniProt Q96GD4), provide IC50 of Cc1cnc2[nH]c3c(OC[C@@H](O)CN(C)C)ccc(-c4cccc(S(=O)(=O)C5CC5)c4)c3c2c1 [Compound 313] please.
< 4 nM

For Aurora B/INCENP (Homo sapiens, UniProt Q96GD4), provide IC50 of CCNC(=O)c1cc(-c2cccc(S(=O)(=O)CC)c2)c2c(c1)[nH]c1ncc(C)cc12 [Compound 146] please.
5.6 to 8.5 nM

For Aurora B/INCENP (Homo sapiens, UniProt Q96GD4), provide IC50 of Cc1cnc2[nH]c3c(O)ccc(-c4cccc(S(=O)(=O)C5CC5)c4)c3c2c1 [Compound 404] please.
< 4 nM

For Aurora B/INCENP (Homo sapiens, UniProt Q96GD4), provide IC50 of Cc1cnc2[nH]c3cc(C(=O)O)cc(SCc4ccccc4)c3c2c1 [Compound 151] please.
> 13 nM

For Aurora B/INCENP (Homo sapiens, UniProt Q96GD4), provide IC50 of Cc1cnc2[nH]c3c(OC[C@@H](CN4CCOCC4)OP(=O)(O)O)ccc(-c4cccc(S(=O)(=O)C5CC5)c4)c3c2c1 [Compound 382] please.
< 4 nM

For Aurora B/INCENP (Homo sapiens, UniProt Q96GD4), provide IC50 of CCS(=O)(=O)c1cccc(-c2cc(CO)cc3[nH]c4ncc(C)cc4c23)c1 [Compound 134] please.
< 4 nM

For Aurora B/INCENP (Homo sapiens, UniProt Q96GD4), provide IC50 of Cc1cnc2[nH]c3c(OC[C@@H](CO)CN(C)C)ccc(-c4cccc(S(=O)(=O)C5CC5)c4)c3c2c1 [Compound 402] please.
< 4 nM

For Aurora B/INCENP (Homo sapiens, UniProt Q96GD4), provide IC50 of CCNCCCOc1ccc(-c2cccc(S(=O)(=O)C3CC3)c2)c2c1[nH]c1ncc(C)cc12 [Compound 407] please.
< 4 nM

For Aurora B/INCENP (Homo sapiens, UniProt Q96GD4), provide IC50 of CCS(=O)(=O)c1cccc(-c2ccc(OCCN(C)C)c3[nH]c4ncc(C)cc4c23)c1 [Compound 207] please.
> 13 nM

For Aurora B/INCENP (Homo sapiens, UniProt Q96GD4), provide IC50 of CCS(=O)(=O)c1cccc(-c2cnc(OCCO)c3[nH]c4ncc(C)cc4c23)c1 [Compound 53] please.
4 to 5.5 nM

For Aurora B/INCENP (Homo sapiens, UniProt Q96GD4), provide IC50 of CCS(=O)(=O)c1cccc(-c2cc(F)c(OCCCN(C)C)c3[nH]c4ncc(Cl)cc4c23)c1 [Compound 205] please.
< 4 nM

For Aurora B/INCENP (Homo sapiens, UniProt Q96GD4), provide IC50 of CCS(=O)(=O)c1cccc(-c2ccc(OCCC#N)c3[nH]c4ncc(Cl)cc4c23)c1 [Compound 256] please.
> 13 nM

For Aurora B/INCENP (Homo sapiens, UniProt Q96GD4), provide IC50 of CCS(=O)(=O)c1cccc(-c2c[nH]c(=O)c3[nH]c4ncc(C)cc4c23)c1 [Compound 32] please.
5.6 to 8.5 nM

* * *

- target: Aurora B/INCENP (Homo sapiens, UniProt Q96GD4)
- assayMethodText: Determination of inhibition of AIK: Aurora B/INCENP direct fluorescence polarization (IMAP) assay
- conditionSummary: 10 uM ATP, 0.8 nM Aurora B/INCENP; values given as bins; read-out: IC50 of Exemplified Compounds Against AIK B
pIC50: −log10 of the molar value.
assayMetric: pIC50

# lookup: pIC50 of `CCS(=O)(=O)c1cccc(-c2ccc(OC[C@@H](C)O)c3[nH]c4ncc(C)cc4c23)c1`
8.07 to 8.25

# lookup: pIC50 of `CCSc1ncc(-c2cccc(S(=O)(=O)CC)c2)c2c1[nH]c1ncc(C)cc12`
8.07 to 8.25

# lookup: pIC50 of `CCS(=O)(=O)c1cccc(-c2ccc(OCCCN(C)C)c3[nH]c4ncc(Cl)cc4c23)c1`
8.26 to 8.40

# lookup: pIC50 of `CNS(=O)(=O)c1cc(-c2ccc(C)c3[nH]c4ncc(C)cc4c23)ccc1OC`
> 8.40

# lookup: pIC50 of `CCN(CC)CCNC(=O)c1cc(-c2cccc(S(=O)(=O)CC)c2)c2c([nH]c3ncc(C)cc32)c1C`
7.89 to 8.07

* * *

- target: Aurora B/INCENP (Homo sapiens, UniProt Q96GD4)
- assayMethodText: Determination of inhibition of AIK: Aurora B/INCENP direct fluorescence polarization (IMAP) assay
- conditionSummary: 10 uM ATP, 0.8 nM Aurora B/INCENP; values given as bins; read-out: IC50 of Exemplified Compounds Against AIK B
This section presents compounds with their documented IC50 values.

Solved cases below.
• CCS(=O)(=O)c1cccc(-c2ccc(OCC3CCN(C)CC3)c3[nH]c4ncc(Cl)cc4c23)c1 = 5.6 to 8.5 nM
• CCS(=O)(=O)c1cccc(-c2cc(C(=O)NCCO)c(C)c3[nH]c4ncc(C)cc4c23)c1 = 4 to 5.5 nM
• CCS(=O)(=O)c1cccc(-c2ccc(OCCCn3cncn3)c3[nH]c4ncc(C)cc4c23)c1 = > 13 nM
• CCS(=O)(=O)c1cccc(-c2c(Br)c(C(=O)OC)cc3[nH]c4ncc(C)cc4c23)c1 = > 13 nM
• CCS(=O)(=O)c1cccc(-c2ccc(OCCCN3CCC(COP(=O)(O)O)CC3)c3[nH]c4ncc(C)cc4c23)c1 = < 4 nM

# lookup: IC50 of `CCS(=O)(=O)c1cccc(-c2cc(CN3CCN(C)CC3)cc3[nH]c4ncc(C)cc4c23)c1`
8.6 to 13 nM

# lookup: IC50 of `CCS(=O)(=O)c1cccc(-c2ccc(OC[C@@H]3CCCN3C)c3[nH]c4ncc(C)cc4c23)c1`
8.6 to 13 nM
